molecular target: ABL2 (human) (UniProt P42684); test: radiometric filter-binding kinase assay, Kinase HotSpot; conditions: compound 0.5 µM; ATP 10 µM
Sequence (P42684 whole entry, looked up): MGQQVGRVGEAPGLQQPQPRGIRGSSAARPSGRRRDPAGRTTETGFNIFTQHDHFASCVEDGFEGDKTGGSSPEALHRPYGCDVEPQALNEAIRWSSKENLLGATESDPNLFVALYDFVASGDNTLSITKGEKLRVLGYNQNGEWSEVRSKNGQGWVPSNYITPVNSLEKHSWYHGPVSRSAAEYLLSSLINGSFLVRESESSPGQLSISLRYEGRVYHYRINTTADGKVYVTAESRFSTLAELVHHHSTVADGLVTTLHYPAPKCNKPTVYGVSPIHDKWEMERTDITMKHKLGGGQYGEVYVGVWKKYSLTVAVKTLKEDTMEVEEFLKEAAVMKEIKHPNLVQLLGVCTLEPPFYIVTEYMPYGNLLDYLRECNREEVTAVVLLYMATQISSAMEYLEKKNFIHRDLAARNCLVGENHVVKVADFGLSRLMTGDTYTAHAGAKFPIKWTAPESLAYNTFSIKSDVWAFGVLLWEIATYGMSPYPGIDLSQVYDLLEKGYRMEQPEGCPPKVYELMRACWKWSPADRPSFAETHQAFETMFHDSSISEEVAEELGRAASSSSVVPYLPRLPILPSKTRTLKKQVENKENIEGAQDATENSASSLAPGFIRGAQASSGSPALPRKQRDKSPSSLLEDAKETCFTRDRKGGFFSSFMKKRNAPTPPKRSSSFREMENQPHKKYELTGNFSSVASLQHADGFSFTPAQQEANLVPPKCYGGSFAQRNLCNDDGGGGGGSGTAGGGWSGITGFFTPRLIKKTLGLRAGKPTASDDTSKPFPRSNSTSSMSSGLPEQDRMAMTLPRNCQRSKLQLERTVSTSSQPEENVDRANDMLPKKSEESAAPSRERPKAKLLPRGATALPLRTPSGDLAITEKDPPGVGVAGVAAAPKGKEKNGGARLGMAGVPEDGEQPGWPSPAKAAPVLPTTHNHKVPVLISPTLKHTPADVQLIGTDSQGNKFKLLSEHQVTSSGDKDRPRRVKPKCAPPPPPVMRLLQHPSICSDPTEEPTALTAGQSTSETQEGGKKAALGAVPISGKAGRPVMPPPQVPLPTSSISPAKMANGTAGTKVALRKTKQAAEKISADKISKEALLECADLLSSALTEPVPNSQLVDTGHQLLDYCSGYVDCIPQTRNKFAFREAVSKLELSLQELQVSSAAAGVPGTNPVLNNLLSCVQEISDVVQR
experimental_endpoint: residual activity (%)
All answers are understood in %, so give the number only.

CN(C)c1ccc(/C=C2\C(=O)Nc3ccccc32)cc1 ... 100
Fc1ccc(-c2nc3n(c2-c2ccncc2)CCS3)cc1 ... 91
Ic1cccc(CSc2nnc(-c3ccncc3)o2)c1 ... 110

Give the measured residual activity for N#C/C(=C\c1ccc(O)c(O)c1)C(=O)NCc1ccccc1
93.4

Give the measured residual activity for O=C(c1cc2cc(O)ccc2[nH]1)c1cc2cc(O)ccc2[nH]1
27.2
